Assay: Metabolic stability in human liver microsome assessed as parent compound remaining at 50 uM incubated for 1 hr in presence of NADPH regenerating system and GSH by LC-UV analysis
Type: ADME
Settings: liver microsomes, read-out: Stability
RESULT_TYPE: remaining at 1 h, 50 µM (%)
Provide only the numeric value, understood in %.

Request: Look up remaining at 1 h, 50 µM for this compound: `[C-]#[N+]c1ccc(NC(=O)Cc2cccc(Cl)c2)cc1`
Result: 82

---

Tested on: Staphylococcus aureus
Assay: Antibacterial activity against methicillin-resistant Staphylococcus aureus ATCC 43300 assessed as reduction in microbial growth measured for 16 to 20 hrs by microdilution assay
Type: functional
Details: time 16-20 hrs
RESULT_TYPE: MIC (µM)
Provide only the numeric value, understood in µM.

These solved cases illustrate the format of a correct answer.
[C-]#[N+]c1ccc(NC(=O)Cc2cccc(OC)c2)cc1 | 8
[C-]#[N+]c1ccc(NC(=O)CCC2CCCC2)cc1 | 8
[C-]#[N+]c1ccc(NC(=O)CCc2ccc([N+](=O)[O-])cc2)cc1 | 8
[C-]#[N+]c1ccc(NC(=O)Cc2ccc3c(c2)OCO3)cc1 | 8
[C-]#[N+]c1ccc(NC(=O)Cc2cccc([N+](=O)[O-])c2)cc1 | 4
[C-]#[N+]c1ccc(NC(=O)Cc2ccc([N+](=O)[O-])cc2)cc1 | 4
O=C(O)c1cn(C2CC2)c2cc(N3CCNCC3)c(F)cc2c1=O [CIPROFLOXACIN] | 0.75
[C-]#[N+]c1ccc(NC(=O)Cc2ccc(Cl)cc2)cc1 | 4
[C-]#[N+]c1ccc(NC(=O)Cc2cccc(Cl)c2)cc1 | 4
[C-]#[N+]c1ccc(NC(=O)Cc2cccc(C#N)c2)cc1 | 8

Request: Look up MIC for this compound: `[C-]#[N+]c1ccc(/C=C/c2ccccc2)cc1`
Result: 8

Request: Look up MIC for this compound: `[C-]#[N+]c1ccc(NC(=O)Cc2ccc(OC)cc2)cc1`
Result: 8

The origin of these recorded values is ChEMBL document CHEMBL5352456.
